Cited source: patent US20230115274A1

- experimentalSystem: hSTING (Homo sapiens, UniProt Q86WV6, G230A/H232R/R293Q/R71H)
- Construct: host or cells: THP1-Dual KO-IFNAR2 cells
- Sequence (Q86WV6 whole entry R71H/G230A/H232R/R293Q): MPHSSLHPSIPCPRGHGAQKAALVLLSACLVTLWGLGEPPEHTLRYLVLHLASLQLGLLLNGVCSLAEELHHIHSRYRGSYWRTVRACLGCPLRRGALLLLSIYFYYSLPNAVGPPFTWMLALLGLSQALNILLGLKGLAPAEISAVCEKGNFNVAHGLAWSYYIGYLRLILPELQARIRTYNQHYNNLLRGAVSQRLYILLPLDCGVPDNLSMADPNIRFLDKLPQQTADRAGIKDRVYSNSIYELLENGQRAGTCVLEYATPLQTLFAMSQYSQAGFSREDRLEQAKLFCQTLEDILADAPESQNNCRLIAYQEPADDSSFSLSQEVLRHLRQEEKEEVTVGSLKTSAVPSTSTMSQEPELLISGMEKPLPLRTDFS
- experimentalDetails: STING reporter assay (luciferase) in THP1-Dual KO-IFNAR2 cells stimulated with 2′3′cGAMP
- Type: cell-based
- conditionLabel: 2′3′cGAMP 15 μM, 24 h, class symbols
Reported EC50 by item:
measuredQuantity: EC50

>>> assayresult("O=C(Nc1cnc(C2CC(F)(F)C2)c(Cl)c1)Nc1c[nH]c2ncc(F)cc12 [Compound 166]")
"0.2 to 1 µM"
>>> assayresult("O=C(Nc1cnc(N2CC3(CN(CC(F)(F)F)C3)C2)c(Cl)c1)Nc1c[nH]c2cccnc12 [Compound 224]")
"5 to 100 µM"
>>> assayresult("O=C(Nc1cnc(N2CCC(F)(F)CC2)nc1)Nc1c[nH]c2ncc(F)cc12 [Compound 190]")
"0.2 to 1 µM"
>>> assayresult("COc1ccc2[nH]cc(NC(=O)Nc3cnc(C4CCC(F)(F)CC4)c(F)c3)c2n1 [Compound 229]")
"0.2 to 1 µM"
>>> assayresult("COCCOc1ccc2[nH]cc(NC(=O)Nc3cnc(C4CCC(F)(F)CC4)c(F)c3)c2n1 [Compound 210]")
"0.2 to 1 µM"
>>> assayresult("O=C(Nc1cnc(N2CCC(F)(F)CC2)c(Cl)c1)Nc1c[nH]c2ncccc12 [Compound 189]")
"0.2 to 1 µM"
>>> assayresult("Cc1cc(NC(=O)Nc2c[nH]c3ncc(F)cc23)cnc1N1CC2(C1)CC(F)(F)C2 [Compound 162]")
"0.2 to 1 µM"
>>> assayresult("O=C(Nc1ccc(C2CCC(F)(F)CC2)nc1)Nc1c[nH]c2nc(Br)c(F)cc12 [Compound 180]")
"5 to 100 µM"
>>> assayresult("COc1cnc2[nH]cc(NC(=O)Nc3cnc(N4CCC(F)(F)CC4)c(C)c3)c2c1 [Compound 168]")
"0.2 to 1 µM"
>>> assayresult("O=C(Nc1cnc(N2CCC3(CC2)CCC(F)(F)CO3)c(Cl)c1)Nc1c[nH]c2cccnc12 [Compound 207]")
"5 to 100 µM"
>>> assayresult("O=C(Nc1ccc(N2CCC(F)(F)CC2)nc1)Nc1c[nH]c2ncc(F)cc12 [Compound 118]")
"0.2 to 1 µM"
>>> assayresult("O=C(Nc1cnc(N2CCC3(CC2)CC(F)(F)C3)c(Cl)c1)Nc1c[nH]c2cccnc12 [Compound 226]")
"0.2 to 1 µM"
>>> assayresult("CN(C(=O)OC(C)(C)C)C1CC(n2cc(NC(=O)Nc3ccc(C4CCC(F)(F)CC4)nc3)c3cc(F)cnc32)C1 (stereo not shown) [Compound 101]")
"5 to 100 µM"
>>> assayresult("O=C(Nc1cnc(C2CCC(F)(F)CC2)c(Cl)c1)Nc1c[nH]c2ncc(F)cc12 [Compound 199]")
"0.2 to 1 µM"
>>> assayresult("O=C(Nc1cnc(C2CCC(F)(F)CC2)c(F)c1)Nc1c[nH]c2ncc(F)cc12 [Compound 113]")
"0.04 to 0.2 µM"
>>> assayresult("O=C(Nc1cnc(N2CCC(F)(F)CC2)c(Cl)c1)Nc1c[nH]c2cc(F)cnc12 [Compound 145]")
"0.2 to 1 µM"
